Where do these numbers come from? They come from patent US20170088602A1.

Biological target: T1, human myostatin (mature, recombinant; R&D Systems) (human, UniProt O14793 267-375)
T1 sequence: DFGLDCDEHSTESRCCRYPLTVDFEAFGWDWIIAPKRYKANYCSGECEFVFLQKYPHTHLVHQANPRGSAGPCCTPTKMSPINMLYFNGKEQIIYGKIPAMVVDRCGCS
Assay: cell-based or functional assay
Response field class: enum, chosen by comparing ARE-luciferase IC50 against low bracket = under 0.1 nM, middle bracket = from 0.1 nM up to 0.3 nM, high bracket = 0.3 nM and over

Prompt: Into which bin does this binder go? ATI-1266 [40K 2-branch PEG] (designed binder, 40K 2-branch PEG on the Cys of the EGSGC tail, cysteine mutant of 2525_D02) MGVSDVPRDLEVVAATPTSLLISWTLPHAGRAHYYRITYGETGGNSPVQEFTVPGRGVTATISGLKPGVDYTITVYAVTVTTTSVILYKPISINYRTEGSGCHHHHHH
Completion: middle bracket

Prompt: Into which bin does this binder go? ATI-1106 [40K 2-branch PEG] (designed binder, 40K 2-branch PEG on the Cys of the GSGC tail) MGVSDVPRDLEVVAATPTSLLISWVSPRGRARYYRITYGETGGNSPVQEFTVPGRGSTATISGLKPGVDYTITVYAVTIYRDGMSHHDPISINYRTGSGCHHHHHH
Completion: high bracket

Prompt: Into which bin does this binder go? ATI-1278 [40K 2-branch PEG] (designed binder, 40K 2-branch PEG on the Cys of the EGSGC tail, cysteine mutant of 2525_D05) MGVSDVPRDLEVVAATPTSLLISWSLPYAGHLNYYRITYGETGGNSPVQEFTVPGRGVTATISGLKPGVDYTITVYAVTLTKSQLIHYMPISINYRTEGSGCHHHHHH
Completion: middle bracket

Prompt: Into which bin does this binder go? ATI-1341 [20K Bis-PEG] (designed binder, two Adnectins joined through their tail Cys to the two ends of a 20 kDa bis-PEG, bivalent PEGylated form of the 2987_H07 cysteine mutant) MGVSDVPRDLEVVAATPTSLLISWTLPHAGRAHYYRITYGETGGNSPVQEFTVPGRGVTATISGLKPGVDYTITVYAVTVTTTKVIHYKPISINYRTEGSGCHHHHHH
Completion: low bracket

Prompt: Into which bin does this binder go? ATI-1276 [40K 2-branch PEG] (designed binder, 40K 2-branch PEG on the Cys of the EGSGC tail, cysteine mutant of 2524_D09) MGVSDVPRDLEVVAATPTSLLISWYLPYPAHMNYYRITYGETGGNSPVQEFTVPGRGLTATISGLKPGVDYTITVYAVTLTKSQILHHRPISINYRTEGSGCHHHHHH
Completion: low bracket

Prompt: Into which bin does this binder go? ATI-1375 [40K 2-branch PEG] (designed binder, 40K 2-branch PEG on the Cys of the EGSGC tail, cysteine mutant of 3115_D04) MGVSDVPRDLEVVAATPTSLLISWDAPRGLARYYRITYGETGGNSPVQEFTVFGRGTTATISGLKPGVDYTITVYAVTIDRDGTRSFDPISINYRTEGSGCHHHHHH
Completion: middle bracket

Prompt: Into which bin does this binder go? ATI-1107 [40K 2-branch PEG] (designed binder, 40K 2-branch PEG on the Cys of the GSGC tail, cysteine mutant of 1979_B06) MGVSDVPRDLEVVAATPTSLLISWSLPHAGHVNYYRITYGETGGNSPVQEFTVPGRGVTATISGLKPGVDYTITVYAVTLTKSQMIHYMPISINYRTGSGCHHHHHH
Completion: high bracket

Prompt: Into which bin does this binder go? ATI-1339 [40K 4-branch PEG] (designed binder, 40K 4-branch PEG on the Cys of the EGSGC tail, cysteine mutant of 2987_H07) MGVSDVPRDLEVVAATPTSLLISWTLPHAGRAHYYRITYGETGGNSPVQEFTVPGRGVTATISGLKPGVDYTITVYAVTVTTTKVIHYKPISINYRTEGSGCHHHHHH
Completion: middle bracket

Prompt: Into which bin does this binder go? ATI-1359 [40K 2-branch PEG] (designed binder, 40K 2-branch PEG on the Cys of the EGSGC tail) MGVSDVPRDLEVVAATPTSLLISWTLPHAGRAHYYRITYGETGGNSPVQEFTVPGRGVTATISGLKPGVDYTITVYAVTVTTTKVIHYKPISINYRTEGSGC
Completion: middle bracket

Prompt: Into which bin does this binder go? ATI-1376 [40K 2-branch PEG] (designed binder, 40K 2-branch PEG on the Cys of the EGSGC tail, cysteine mutant of 3115_E06) MGVSDVPRDLEVVAATPTSLLISWDAPAGLARYYRITYGETGGNSPVQEFTVVGRGNTATISGLKPGVDYTITVYAVTIFRDGPVTWDPISINYRTEGSGCHHHHHH
Completion: low bracket

Prompt: Into which bin does this binder go? ATI-1377 [40K 2-branch PEG] (designed binder, 40K 2-branch PEG on the Cys of the EGSGC tail) MGVSDVPRDLEVVAATPTSLLISWDAPKGLARYYRITYGETGGNSPVQEFTVVGRGNTATISGLKPGVDYTITVYAVTIFRDGPVTWDPISINYRTEGSGCHHHHHH
Completion: low bracket

Prompt: Into which bin does this binder go? ATI-1378 [40K 2-branch PEG] (designed binder, 40K 2-branch PEG on the Cys of the EGSGC tail, cysteine mutant of 3146_A08) MGVSDVPRDLEVVAATPTSLLISWSLPNPGNAHYYRITYGETGGNSPVQEFTVPGRGVTATISGLKPGVDYTITVYAVTVTDTGFITYKPISINYRTEGSGCHHHHHH
Completion: middle bracket

Prompt: Into which bin does this binder go? ATI-1338 [40K 2-branch PEG] (designed binder, 40K 2-branch PEG on the Cys of the EGSGC tail, cysteine mutant of 2987_H07) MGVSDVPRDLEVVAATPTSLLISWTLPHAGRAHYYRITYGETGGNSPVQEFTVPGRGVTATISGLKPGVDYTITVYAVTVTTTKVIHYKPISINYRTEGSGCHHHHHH
Completion: middle bracket
